- Assay System: RIPK2 (KD)/XIAP (BIR2) (Homo sapiens, UniProt O43353)
- Construct: made in house; host or cells: baculovirus-infected Sf9 cells
- Sequence (O43353 1-310): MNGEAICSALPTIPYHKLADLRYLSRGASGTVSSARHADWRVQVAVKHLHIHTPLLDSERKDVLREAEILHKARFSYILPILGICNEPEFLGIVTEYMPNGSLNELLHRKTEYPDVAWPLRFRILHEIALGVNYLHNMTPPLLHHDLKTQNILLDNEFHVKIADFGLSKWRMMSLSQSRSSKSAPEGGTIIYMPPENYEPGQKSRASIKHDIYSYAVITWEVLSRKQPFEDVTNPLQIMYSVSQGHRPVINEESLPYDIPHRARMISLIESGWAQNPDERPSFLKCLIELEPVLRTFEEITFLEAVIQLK
- Experimental Protocol: RIPK2-XIAP binding competition PPI assay (TR-FRET)
- Conditions Used: 50 nM of GSK583 = -100% activity, read-out: PPI Amax
Endpoint Label: Emax

1. COc1cc2ncc(-c3cc(C(=O)NCc4cscn4)n(C)n3)n2cc1S(=O)(=O)C(C)(C)C [Example 85]; ≥ 80%
2. COc1ccccc1[C@@H](C)NC(=O)c1cc(-c2cnc3cc(OCCO)c(S(=O)(=O)C(C)(C)C)cn23)nn1C [Example 75]; ≥ 80%
3. COc1cc2ncc(-n3cc(N4CCC(c5ccccc5)C4=O)cn3)n2cc1S(=O)(=O)C(C)(C)C (racemic) [Example 180]; ≥ 80%
4. COc1cc2ncc(-c3cc(NC(=O)O[C@@H](C)c4ccccc4)n(C)n3)n2cc1S(=O)(=O)C(C)(C)C [Example 150]; ≥ 80%
5. CCn1nc(-c2cnc3cc(OC)c(S(=O)(=O)C(C)(C)C)cn23)cc1C(=O)N[C@H](C)c1ccccn1 [Example 95]; ≥ 80%
6. COc1cc2ncc(-c3cc(C(=O)N[C@H](C)c4ccc(F)cn4)n(C)n3)n2cc1S(=O)(=O)C(C)(C)C [Example 48]; ≥ 80%

## Task Look at this compound and give its reported Emax. COc1cc2ncc(-c3cc(NC(=O)Cc4ccccc4Cl)n(C)n3)n2cc1S(=O)(=O)C(C)(C)C [Example 185]
## Result ≥ 80%

## Task Look at this compound and give its reported Emax. COc1cc2ncc(-n3cc(NC(=O)[C@H]4CC[C@@H](O)CC4)cn3)n2cc1S(=O)(=O)C(C)(C)C [Example 172]
## Result 30 to 55%

###

- Assay System: RIPK2 (KD)/XIAP (BIR2) (Homo sapiens, UniProt O43353)
- Construct: made in house; host or cells: baculovirus-infected Sf9 cells
- Experimental Protocol: RIPK2-XIAP binding competition PPI assay (TR-FRET)
- Conditions Used: 50 nM of GSK583 = -100% activity, read-out: PPI Amax
Endpoint Label: Emax

## Task Look at this compound and give its reported Emax. COc1cc2ncc(-c3cc(C(=O)NCc4ccccc4CO)n(C)n3)n2cc1S(=O)(=O)C(C)(C)C [Example 74]
## Result ≥ 80%

## Task Look at this compound and give its reported Emax. CCn1nc(-c2cnc3cc(OC)c(S(=O)(=O)C(C)(C)C)cn23)cc1C(=O)N[C@H](C)c1ccn(C)n1 [Example 125]
## Result ≥ 80%

## Task Look at this compound and give its reported Emax. COc1cc2ncc(-c3cc(C(=O)N[C@H](C)c4ncccc4F)n(CCO)n3)n2cc1S(=O)(=O)C(C)(C)C [Example 143]
## Result ≥ 80%

## Task Look at this compound and give its reported Emax. COc1cc2ncc(-c3cc(C(=O)NCc4cccc5ccnn45)n(C)n3)n2cc1S(=O)(=O)C(C)(C)C [Example 20]
## Result ≥ 80%

###

- Assay System: RIPK2 (KD)/XIAP (BIR2) (Homo sapiens, UniProt O43353)
- Construct: made in house; host or cells: baculovirus-infected Sf9 cells
- Experimental Protocol: RIPK2-XIAP binding competition PPI assay (TR-FRET)
- Conditions Used: 50 nM of GSK583 = -100% activity
Endpoint Label: PPI Amax

Some compounds with recorded PPI Amax:
1. COc1cc2ncc(-n3cc(NC(=O)N4CCCC4c4ccccc4)cn3)n2cc1S(=O)(=O)C(C)(C)C (single isomer, unassigned) [Example 178]; C (Amax of 55%>C>30)
2. COc1cc2ncc(-c3cc(C(=O)N[C@@H]4C[C@H]4c4ccccc4)n(C)n3)n2cc1S(=O)(=O)C(C)(C)C (single isomer, unassigned); A (Amax of ≥80%)
3. COc1cc2ncc(-n3cc(N4CCC(c5ccccc5)C4=O)cn3)n2cc1S(=O)(=O)C(C)(C)C (single isomer, unassigned) [Example 182]; C (Amax of 55%>C>30)
4. COc1cc2ncc(-n3cc(NC(=O)N4CCCC4c4ccccc4)cn3)n2cc1S(=O)(=O)C(C)(C)C (single isomer, unassigned) [Example 179]; A (Amax of ≥80%)

## Task Look at this compound and give its reported PPI Amax. COc1cc2ncc(-n3cc(N4CCC(c5ccccc5)C4=O)cn3)n2cc1S(=O)(=O)C(C)(C)C (single isomer, unassigned) [Example 183]
## Result A (Amax of ≥80%)

Hey, just so you know, these numbers are from patent US20260091026A1.
